- assay-explanation: Single-dose pharmacokinetic study, fasting vs high-fat meal
- test-context: human, in vivo, po, 80 mg, Fasting; single oral dose of 80 mg of Tablet 22; healthy volunteers

{"columns": ["compound", "AUC(0-inf), ng·h/mL"],
 "data": [
  ["[2H]C([2H])([2H])n1cc(-c2ccnc(Nc3cc(NC(=O)C=C)c(N(C)CCN(C)C)cc3OC)n2)c2ccccc21 [TY-9591]", 3930]
]}

====

- assay-explanation: Single-dose pharmacokinetic study, fasting vs high-fat meal
- test-context: human, in vivo, po, 80 mg, After high-fat meal; single oral dose of 80 mg of Tablet 22; healthy volunteers

{"columns": ["query-smiles", "AUC(0-inf) [ng·h/mL]"],
 "data": [
  ["[2H]C([2H])([2H])n1cc(-c2ccnc(Nc3cc(NC(=O)C=C)c(N(C)CCN(C)C)cc3OC)n2)c2ccccc21", 4350]
]}

====

- assay-explanation: Single-dose pharmacokinetic study, fasting vs high-fat meal
- test-context: human, in vivo, po, 80 mg, Fasting; single oral dose of 80 mg of Tablet 22; healthy volunteers; read-out: AUC0-t

{"columns": ["compound", "AUC(0-t) / ng·h/mL"],
 "data": [
  ["[2H]C([2H])([2H])n1cc(-c2ccnc(Nc3cc(NC(=O)C=C)c(N(C)CCN(C)C)cc3OC)n2)c2ccccc21 [TY-9591]", 3880]
]}

====

- assay-explanation: Single-dose pharmacokinetic study, fasting vs high-fat meal
- test-context: human, in vivo, po, 80 mg, Fasting; single oral dose of 80 mg of Tablet 22 (40 mg*2 tablets); healthy volunteers

{"columns": ["query-smiles", "unit-name", "Tmax"],
 "data": [
  ["[2H]C([2H])([2H])n1cc(-c2ccnc(Nc3cc(NC(=O)C=C)c(N(C)CCN(C)C)cc3OC)n2)c2ccccc21", "h", 5.99]
]}

====

- assay-explanation: Single-dose pharmacokinetic study, fasting vs high-fat meal
- test-context: human, in vivo, po, 80 mg, After high-fat meal; single oral dose of 80 mg of Tablet 22; healthy volunteers
property-label: Cmax (ng/mL)

{"columns": ["query-smiles", "experimental-value"],
 "data": [
  ["[2H]C([2H])([2H])n1cc(-c2ccnc(Nc3cc(NC(=O)C=C)c(N(C)CCN(C)C)cc3OC)n2)c2ccccc21", 69]
]}

====

- assay-explanation: Single-dose pharmacokinetic study, fasting vs high-fat meal
- test-context: human, in vivo, po, 80 mg, After high-fat meal; single oral dose of 80 mg of Tablet 22; healthy volunteers; read-out: AUC0-t

{"columns": ["query-smiles", "unit-name", "AUC(0-t)"],
 "data": [
  ["[2H]C([2H])([2H])n1cc(-c2ccnc(Nc3cc(NC(=O)C=C)c(N(C)CCN(C)C)cc3OC)n2)c2ccccc21", "µg·h/mL", 4.3]
]}

====

- assay-explanation: Single-dose pharmacokinetic study, fasting vs high-fat meal
- test-context: human, in vivo, po, 80 mg, After high-fat meal; single oral dose of 80 mg of Tablet 22; healthy volunteers; read-out: AUC0-72h

{"columns": ["molecule", "AUC(0-t) / ng·h/mL"],
 "data": [
  ["[2H]C([2H])([2H])n1cc(-c2ccnc(Nc3cc(NC(=O)C=C)c(N(C)CCN(C)C)cc3OC)n2)c2ccccc21 [TY-9591]", 2670]
]}

====

- assay-explanation: Single-dose pharmacokinetic study, fasting vs high-fat meal
- test-context: human, in vivo, po, 80 mg, After high-fat meal; single oral dose of 80 mg of Tablet 22; healthy volunteers

{"columns": ["query-smiles", "half-life, h"],
 "data": [
  ["[2H]C([2H])([2H])n1cc(-c2ccnc(Nc3cc(NC(=O)C=C)c(N(C)CCN(C)C)cc3OC)n2)c2ccccc21", 48.6]
]}

====

- assay-explanation: Single-dose pharmacokinetic study, fasting vs high-fat meal
- test-context: human, in vivo, po, 80 mg, Fasting; single oral dose of 80 mg of Tablet 22; healthy volunteers

{"columns": ["query-smiles", "unit-name", "Cmax"],
 "data": [
  ["[2H]C([2H])([2H])n1cc(-c2ccnc(Nc3cc(NC(=O)C=C)c(N(C)CCN(C)C)cc3OC)n2)c2ccccc21", "ng/mL", 67.8]
]}

====

- assay-explanation: Single-dose pharmacokinetic study, fasting vs high-fat meal
- test-context: human, in vivo, po, 80 mg, Fasting; single oral dose of 80 mg of Tablet 22; healthy volunteers; read-out: AUC0-72h

{"columns": ["query-smiles", "unit-name", "AUC(0-t)"],
 "data": [
  ["[2H]C([2H])([2H])n1cc(-c2ccnc(Nc3cc(NC(=O)C=C)c(N(C)CCN(C)C)cc3OC)n2)c2ccccc21", "ng·h/mL", 2330]
]}
